- procedure-summary: Plasma pharmacokinetics after single oral dose
- Type: in vivo
- test-conditions: human, po, 20 mg
Counter-ions that a name gives are not always drawn.
measurement-label: Cmax (ng/mL)
Numbers only, in ng/mL.

Prompt: Request the reported Cmax associated with O=c1n(CCCN2CCN(c3cccc(Cl)c3)CC2)nc2ccccn12 [Trazodone, Trazodone hydrochloride]
Completion: 413

---

- procedure-summary: Plasma pharmacokinetics after single oral dose
- Assay type: in vivo
- test-conditions: human, oral, 400 mg
measurement-label: AUC (ng·h/mL)
Numbers only, in ng·h/mL.

Prompt: Request the reported AUC associated with `COc1c(N2C[C@@H]3CCCN[C@@H]3C2)c(F)cc2c(=O)c(C(=O)O)cn(C3CC3)c12`
Completion: 24700

---

- procedure-summary: Plasma pharmacokinetics after single oral dose
- Format: in vivo
- test-conditions: human, oral, 20 mg
Structures can show the parent of a compound that is named as a salt.
measurement-label: AUC (ng·h/mL)
Numbers only, in ng·h/mL.

Prompt: Request the reported AUC associated with O=c1n(CCCN2CCN(c3cccc(Cl)c3)CC2)nc2ccccn12 [Trazodone, Trazodone hydrochloride]
Completion: 2150

---

- procedure-summary: Plasma pharmacokinetics after single oral dose
- Format: in vivo
- test-conditions: human, oral, 60 mg
Counter-ions that a name gives are not always drawn.
measurement-label: Tmax (min)
Give bare numbers, in min.

Prompt: Request the reported Tmax associated with O=c1n(CCCN2CCN(c3cccc(Cl)c3)CC2)nc2ccccn12 [Trazodone, Trazodone hydrochloride]
Completion: 30

---

- procedure-summary: Plasma pharmacokinetics after single oral dose
- Type: in vivo
- test-conditions: human, oral, 140 mg
Structures can show the parent of a compound that is named as a salt.
measurement-label: Tmax (min)
Give bare numbers, in min.

Prompt: Request the reported Tmax associated with O=c1n(CCCN2CCN(c3cccc(Cl)c3)CC2)nc2ccccn12 [Trazodone, Trazodone hydrochloride]
Completion: 18

---

- procedure-summary: Plasma pharmacokinetics after single oral dose
- Type: in vivo
- test-conditions: human, oral, 400 mg
measurement-label: Cmax (ng/mL)
One number for each entry, in ng/mL.

Prompt: Request the reported Cmax associated with `COc1c(N2C[C@@H]3CCCN[C@@H]3C2)c(F)cc2c(=O)c(C(=O)O)cn(C3CC3)c12`
Completion: 2760

---

- procedure-summary: Plasma pharmacokinetics after single oral dose
- Assay type: in vivo
- test-conditions: human, po, 60 mg
Where a name gives a salt, the structure may show the parent alone.
measurement-label: Cmax
State the result as a value with its unit after it.

Prompt: Request the reported Cmax associated with O=c1n(CCCN2CCN(c3cccc(Cl)c3)CC2)nc2ccccn12 [Trazodone, Trazodone hydrochloride]
Completion: 1270 ng/mL

---

- procedure-summary: Plasma pharmacokinetics after single oral dose
- Format: in vivo
- test-conditions: human, oral, 60 mg
Structures can show the parent of a compound that is named as a salt.
measurement-label: AUC (ng·h/mL)
Give bare numbers, in ng·h/mL.

Prompt: Request the reported AUC associated with O=c1n(CCCN2CCN(c3cccc(Cl)c3)CC2)nc2ccccn12 [Trazodone, Trazodone hydrochloride]
Completion: 6240
